System: Staphylococcus aureus (ATCC 43300)
Assay: Antibacterial MIC, broth microdilution (CLSI)
Assay type: cell-based
Details: SI, IC50 (μM)/MIC80 (μM); HEK293 cytotoxicity; Alkyl Amidines and NH Pyrroles
recorded-endpoint: S. aureus Selectivity Indices, Group

As a guide, the following entries are already answered.
- Cn1cc(NC(=O)c2cc(NC(=O)c3ccc(/C=C/c4cnc5ccccc5c4)cc3)cn2C)cc1C(=O)NCCC(=N)N1CCSCC1: D (D: SI > 10)
- Cn1cc(NC(=O)c2cc(NC(=O)c3ccc(/C=C/c4cnc5ccccc5c4)cc3)cn2C)cc1C(=O)NCCC(=N)N1CCOCC1: D (D: SI > 10)
- Cn1cc(NC(=O)c2ccc(/C=C/c3cnc4ccccc4c3)cc2)cc1C(=O)Nc1c[nH]c(C(=O)NCCC(=N)N)c1: D (D: SI > 10)
- COc1cccc(/C=C/c2ccc(C(=O)Nc3cc(C(=O)Nc4cc(C(=O)NCCC(=N)N)n(C)c4)n(C)c3)cc2)c1 [Ref-5, reference compound]: A (Group A: SI < 3)
- Cn1cc(NC(=O)c2ccc(/C=C/c3ccc4nonc4c3)cc2)cc1C(=O)Nc1c[nH]c(C(=O)NCCC(=N)N)c1: B (Group B: 3 < SI <= 5)
- COc1cccc(/C=C/c2ccc(C(=O)Nc3cc(C(=O)Nc4cc(C(=O)NCCC(=N)NC(C)C)n(C)c4)n(C)c3)cc2)c1: B (Group B: 3 < SI <= 5)
- [H]/N=C(\CCNC(=O)c1cc(NC(=O)c2cc(NC(=O)c3ccc(C=Cc4ccc(N(C)C)cc4)nc3)cn2C)cn1C)NCC: B (Group B: 3 < SI <= 5)
- CN1CCN(C(=N)CCNC(=O)c2cc(NC(=O)c3cc(NC(=O)c4ccc(/C=C/c5cnc6ccccc6c5)cc4)cn3C)cn2C)CC1: B (Group B: 3 < SI <= 5)
- COc1ccc(/C=C/c2ccc(C(=O)Nc3cc(C(=O)Nc4cc(C(=O)NCCC(=N)NC(C)C)n(C)c4)n(C)c3)cc2)cc1: B (Group B: 3 < SI <= 5)
- CN(C)CCNC(=O)c1cc(NC(=O)c2cc(NC(=O)c3ccc(/C=C/c4cnc5ccccc5c4)cc3)cn2C)cn1C [Ref-7, reference compound]: A (Group A: SI < 3)

Enquiry: Reported S. aureus Selectivity Indices, Group for Staphylococcus aureus (ATCC 43300), given COc1ccc(/C=C/c2ccc(C(=O)Nc3cc(C(=O)Nc4cc(C(=O)NCCN5CCOCC5)n(C)c4)n(C)c3)cn2)cc1 [Ref-2, reference compound] ?
Return: A (Group A: SI < 3)

Enquiry: Test system Staphylococcus aureus (ATCC 43300); read-out S. aureus Selectivity Indices, Group; what value for Cn1cc(NC(=O)c2cc(NC(=O)c3ccc(/C=C/c4ccc(C(F)(F)F)cc4)cc3)cn2C)cc1C(=O)NCCC(=N)N [Ref-6, reference compound] ?
Return: A (Group A: SI < 3)

Enquiry: What value of S. aureus Selectivity Indices, Group on Staphylococcus aureus (ATCC 43300) does `CC/N=C(\N)CCNC(=O)c1cc(NC(=O)c2cc(NC(=O)c3ccc(/C=C/c4cnc5ccccc5c4)cc3)cn2C)cn1C` have?
Return: D (D: SI > 10)

Enquiry: Param readout = S. aureus Selectivity Indices, Group; param system = Staphylococcus aureus (ATCC 43300); param query = `[H]/N=C(\CCNC(=O)c1cc(NC(=O)c2cc(NC(=O)c3ccc(C=Cc4ccc5nonc5c4)cc3)cn2C)cn1C)NCCC1CCOCC1` ; response: value
Return: B (Group B: 3 < SI <= 5)

Enquiry: Param readout= S. aureus Selectivity Indices, Group; system= Staphylococcus aureus (ATCC 43300); entry= `Cn1cc(NC(=O)c2cc(NC(=O)c3ccc(/C=C/c4cnc5ccccc5c4)cc3)cn2C)cc1C(=O)NCCC(=N)N1CCCCC1` ; returns value.
Return: D (D: SI > 10)

---

Tested on: T. vaginalis
Experiment: Trichomonas resorufin assay
Assay type: cell-based
Conditions: SI, IC50 (μM)/IC50 (μM); HEK293 cytotoxicity; Quaternary ammoniums
recorded-endpoint: T. vaginalis Selectivity Indices, Group

- CCCCC[N+](C)(C)CCNC(=O)c1cc(NC(=O)c2cc(NC(=O)c3ccc(/C=C/c4cnc5ccccc5c4)cc3)cn2C)cn1C [Ic4]: D (Group D: SI > 3)
- CCCC[N+](C)(C)CCNC(=O)c1cc(NC(=O)c2cc(NC(=O)c3ccc(/C=C/c4cnc5ccccc5c4)cc3)cn2C)cn1C [Ic3]: D (Group D: SI > 3)

---

System: Candida glabrata (ACPF3309)
Details: Nakaseomyces glabratus, read-out: MIC99 Candida glabrata
recorded-endpoint: MIC99

Below: 6 molecules and their reported MIC99.
* Cn1cc(NC(=O)c2cc(NC(=O)c3ccc(/C=C/c4cnc5ccccc5c4)cc3)cn2C)cc1C(=O)NCCC(=N)N1CCOCC1 | < 5 µg/mL
* COCCOCC[N+](C)(C)CCNC(=O)c1cc(NC(=O)c2cc(NC(=O)c3ccc(/C=C/c4cnc5ccccc5c4)cc3)cn2C)cn1C | < 5 µg/mL
* CCCCCCCCCNC(=N)CCNC(=O)c1cc(NC(=O)c2cc(NC(=O)c3ccc(/C=C/c4cnc5ccccc5c4)cc3)cn2C)cn1C | 25 to 50 µg/mL
* CCCC/N=C(\CCNC(=O)c1cc(NC(=O)c2cc(NC(=O)c3ccc(/C=C/c4ccc(N(C)C)cc4)nc3)cn2C)cn1C)NCCCC | 25 to 50 µg/mL
* Cn1cc(NC(=O)c2cc(NC(=O)c3ccc(/C=C/c4cnc5ccccc5c4)cc3)c[nH]2)cc1C(=O)NCCC(=N)N | < 5 µg/mL
* CC/N=C(\N)CCNC(=O)c1cc(NC(=O)c2cc(NC(=O)c3ccc(/C=C/c4cnc5ccccc5c4)cc3)cn2C)cn1C | 5 to 25 µg/mL

Could you now look at the following molecule, please?
Enquiry: Would you mind telling me what MIC99 value was observed for `CCCCCCCCCCCCCCC[N+](C)(C)CCNC(=O)c1cc(NC(=O)c2cc(NC(=O)c3ccc(/C=C/c4cnc5ccccc5c4)cc3)cn2C)cn1C` ?
Return: 25 to 50 µg/mL

---

Recorded MIC80 by entry
Tested on: Staphylococcus aureus (ATCC 43300)
Assay: Antibacterial MIC, broth microdilution (CLSI)
Format: cell-based
Details: Staphylococcus aureus, ATCC43300; read-out: MIC80 S. aureus

As a guide, the following entries are already answered.
- CONC(=N)CCNC(=O)c1cc(NC(=O)c2cc(NC(=O)c3ccc(/C=C/c4cnc5ccccc5c4)cc3)cn2C)cn1C: < 5 µM
- CCCCCNC(=N)CCNC(=O)c1cc(NC(=O)c2cc(NC(=O)c3ccc(/C=C/c4cnc5ccccc5c4)cc3)cn2C)cn1C: < 5 µM
- [H]/N=C(\CCNC(=O)c1cc(NC(=O)c2cc(NC(=O)c3ccc(C=Cc4ccc(N(C)C)cc4)nc3)cn2C)cn1C)NC: 5 to 25 µM
- C/N=C(/CCNC(=O)c1cc(NC(=O)c2cc(NC(=O)c3ccc(/C=C/c4cccc(C(F)(F)F)c4)nc3)cn2C)cn1C)NC: 5 to 25 µM
- [H]/N=C(\CCNC(=O)c1cc(NC(=O)c2cc(NC(=O)c3ccc(C=Cc4ccc(C#N)cc4)cc3)cn2C)cn1C)NC(C)C: 25 to 100 µM

Enquiry: For the molecule `[H]/N=C(\CCNC(=O)c1cc(NC(=O)c2cc(NC(=O)c3ccc(C=Cc4ccc(N(C)C)cc4)nc3)cn2C)cn1C)N1CCSCC1` , what MIC80 is on record?
Return: < 5 µM

Enquiry: So what's the measured MIC80 for this one? `CC(C)/N=C(\N)CCNC(=O)c1cc(NC(=O)c2cc(NC(=O)c3ccc(/C=C/c4ccc5nonc5c4)cc3)cn2C)cn1C`
Return: 5 to 25 µM

Enquiry: Entry `COc1ccc(/C=C/c2ccc(C(=O)Nc3cc(C(=O)Nc4cc(C(=O)NCCC(=N)NC(C)C)n(C)c4)n(C)c3)cn2)cc1` : reported MIC80 = ?
Return: 5 to 25 µM

Enquiry: Entry `Cn1cc(NC(=O)c2cc(NC(=O)c3ccc(/C=C/c4cnc5ccccc5c4)cc3)cn2C)cc1C(=O)NCCC(=N)NCCN1CCSCC1` has what MIC80?
Return: 5 to 25 µM

Enquiry: Reported MIC80, molecule `[H]/N=C(\CCNC(=O)c1cc(NC(=O)c2cc(NC(=O)c3ccc(C=Cc4ccc(N(C)C)cc4)nc3)cn2C)cn1C)NCCN1CCSCC1` : ____
Return: 5 to 25 µM

Enquiry: What does the record list as MIC80 for `CN(C)c1ccc(/C=C/c2ccc(C(=O)Nc3cc(C(=O)Nc4c[nH]c(C(=O)NCCN5CCOCC5)c4)n(C)c3)cn2)cc1` ?
Return: < 5 µM

Enquiry: Which MIC80 is listed for `C/N=C(/CCNC(=O)c1cc(NC(=O)c2cc(NC(=O)c3ccc(/C=C/c4ccc(F)c(OC)c4)nc3)cn2C)cn1C)NC` ?
Return: < 5 µM

Enquiry: Record request: MIC80 value, item `[H]/N=C(\CCNC(=O)c1cc(NC(=O)c2cc(NC(=O)c3ccc(C=Cc4ccc5nonc5c4)cc3)cn2C)cn1C)NCCOCCOCCOC`
Return: < 5 µM

Enquiry: # input molecule: `CN(C)c1ccc(/C=C/c2ccc(C(=O)Nc3c[nH]c(C(=O)Nc4c[nH]c(C(=O)NCCN5CCOCC5)c4)c3)cn2)cc1` ; wanted: its MIC80
Return: 5 to 25 µM

Enquiry: Recorded MIC80 of `[H]/N=C(\CCNC(=O)c1cc(NC(=O)c2cc(NC(=O)c3ccc(C=Cc4ccc5nonc5c4)cc3)cn2C)cn1C)N1CCSCC1` , please.
Return: < 5 µM

Origin of the recorded values: patent US20250313546A1
